What hCCL1 (100 nM) residual response, Protocol #2, mAb 10 µg/mL was measured for each of the following?
TARGET_SYSTEM: human CCR8 (human, UniProt P51685 1-355)
ASSAY_OVERVIEW: cell-based or functional assay
Answers are plain numbers, in %.

| BINDER | DISPLAY_UNIT | NUMBER |
| --- | --- | --- |
| 3-81 (antibody, human IgG1, kappa, V domains shown, humanized, human IgG1 kappa) VH: QVQLQQSGPEVVKPGASVKVSCKTSGYTFTEYTIHWVRQSHGQSLEWVGGINPNNGNTRYDQKFKGRVTITIDKSSSTAYMELRSLTSEDTAVYYCARVARSSGSGPYAMDYWGQGTTVTVSS VL: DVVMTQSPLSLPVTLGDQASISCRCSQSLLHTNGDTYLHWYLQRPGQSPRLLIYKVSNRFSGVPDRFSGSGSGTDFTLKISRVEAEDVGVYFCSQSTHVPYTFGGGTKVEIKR | % | 41 |

Provide hCCL1 (100 nM) residual response, Protocol #2, mAb 10 µg/mL for all items below, preserving their order.
1. 3-48 (antibody, V domains shown) VH: QVQLVETGGGLVRPGNSLKLSCVTSGFTFSNYRMHWLRQPPGKRLEWIAVIKVKSDNYGANYAESVKGRFTISRDDSKSSVYLQVNRLREEDTATYYCSSPTYPGSSGFAYWGQGTLVTVSA VL: DIQMTQTTSSLSASLGDRVTISCRASQDISNYLNWYQQKPDGTVKLLIYYTSRLHSGVPSRFSGSGSGTDYSLTISNLEQEDIATYFCQQGNKFPPTFGGGTKLEIN
2. 3-52 (antibody, V domains shown) VH: QVQLQQPGSELVRPGASVKLSCKASGYTFTSYWMHWVKQRPGQGLEWIGNIWPGSASTNYDEKFKNKATLTVDTSSSTAYMQLSSLTSEDSAVYYCIRGGKGAMDYWSQGTSVTVSS VL: DVVMTQIPLSLPVSLGDQASISCRSSQSLENSYGNTYLNWYLQKPGQSPQLLIYRVSNRFSGVLDRFSGSGSGTDFTLKISRVEAEDLGVYFCLQVTHVPPTFGAGTKLELK

48
56
